System: HepG2
Test: cytotoxicity call (relative viability < 0.9)
Conditions: 10 µM
Hit rate of the full screen: of about 39,000 compounds, about 3,300 (8.5%) were called active. The sample as a whole holds a higher share of actives than the screen did.
Recorded Endpoint: cytotoxicity call

O=C(CN1CCNCC1)c1ccc(F)cc1 : inactive
C[C@@H]1CN([C@H](C)CO)C(=O)c2cccc(NS(=O)(=O)c3ccc(F)cc3)c2O[C@@H]1CN(C)S(=O)(=O)c1cccs1 : inactive
Cc1ccc2nc(-c3ccncc3)cc(-c3ccccc3)c2c1 : inactive
CC(=O)N(C)CCc1ccc(C)[n+]([O-])c1 : inactive
COc1ccc(NC(=O)N(C)C[C@@H]2OCCCC[C@@H](C)Oc3ccc(NS(=O)(=O)c4ccc(C)cc4)cc3C(=O)N([C@H](C)CO)C[C@H]2C)cc1 : inactive
NC(=O)C1(N2CCCCC2)CCN(CCCC(=O)c2ccc(F)cc2)CC1 : inactive
C[C@@H](CO)N1C(=O)[C@@H]2[C@H]3C(=O)OCCC=C[C@H]3O[C@]23C=CCN(Cn2nnc4ccccc42)C(=O)[C@@H]13 : inactive
C[C@H](CO)N1C[C@H](C)[C@H](CN(C)C(=O)Nc2ccc(F)cc2)OCCCC[C@H](C)Oc2ccc(NC(=O)C3CCC3)cc2C1=O : inactive
Nc1nnc(C(=O)N2CCCCC2)[nH]1 : inactive
CN1CCN(C(=O)C[C@@H]2CC[C@H]3[C@@H](COC[C@@H](O)CN3S(=O)(=O)c3cccc(Cl)c3)O2)CC1 : inactive
NC(=O)COc1ccccc1 : inactive
Cc1ccc2c(c1)/C(=C/c1ccncc1)c1cc3ccccc3nc1-2 : active
Cc1ccc(N2C(=O)C(=O)NC2=S)cc1 : inactive
C[C@@H]1CN([C@H](C)CO)C(=O)c2cccc(NC(=O)NC3CCCCC3)c2O[C@@H]1CN(C)S(C)(=O)=O : inactive
O=C(CCCCCC(=O)Nc1ccccc1O)N/N=C/[C@H](O)[C@@H](O)[C@@H](O)[C@H](O)C(=O)O : inactive
CC(C)CC#Cc1ccc2c(c1)O[C@H](CN(C)C(=O)C1CCOCC1)[C@H](C)CN([C@@H](C)CO)S2(=O)=O : inactive
C[C@@H]1CN([C@@H](C)CO)C(=O)c2cc(NC(=O)CCCCCC(=O)Nc3ccccc3N)ccc2O[C@H]1CN(C)S(=O)(=O)c1cn(C)cn1 : inactive
O=C(CCCN1CCC(O)(c2ccc(Cl)cc2)CC1)c1ccc(F)cc1 : active
